Tested on: Bacteroides stercoris
assay_summary: growth AUC relative to DMSO control (median of replicates) (fraction); higher = more growth (less inhibition), active = hit call of the paper
condition_parameters: 20 µM; 24 h
Assign t to entries whose growth AUC meets or exceeds 1; assign f to the rest.

Examples with answers:
compound: CC(C)(C)[C@@H](O)[C@@H](Cc1ccc(Cl)cc1)n1cncn1 (mixture of isomers)
tgt: Bacteroides stercoris
label_value: f

compound: CO/N=C(/C(=O)O)c1ccccc1CO/N=C(\C)c1cccc(C(F)(F)F)c1
tgt: Bacteroides stercoris
label_value: t

compound: O=C(Nc1ccc(Cl)cc1C(O)c1ccccc1)c1ccncc1 (configuration not stated)
tgt: Bacteroides stercoris
label_value: f

compound: CC(C)(SC(=O)N1CCCCC1)c1ccccc1
tgt: Bacteroides stercoris
label_value: f

compound: CC(C)N(C)S(=O)(=O)NC(=O)c1cc(-n2c(=O)cc(C(F)(F)F)[nH]c2=O)c(F)cc1Cl
tgt: Bacteroides stercoris
label_value: t

compound: Cc1ccc2c(c1)[C@H](Nc1nc(N)nc(C(C)F)n1)[C@@H](C)C2 (some centres not stated)
tgt: Bacteroides stercoris
label_value: t

compound: COC(=O)CC(NC(=O)[C@@H](NC(=O)OC(C)C)C(C)C)c1ccc(Cl)cc1 (some centres not stated)
tgt: Bacteroides stercoris
label_value: t

compound: Br[C@@H]1CC[C@H](Br)[C@H](Br)CC[C@@H](Br)[C@@H](Br)CC[C@H]1Br
tgt: Bacteroides stercoris
label_value: f

Okay, now this compound:
Hello, I need to know if CN(C)C(=O)Nc1ccccc1 has measured growth AUC not below 1. Thanks!
t

Entry source: the supplement of paper PMC12669032
